Data provenance: PubChem BioAssay (NCI)

Below, each of the compounds is paired with its reported growth inhibition value.
# method: NCI Yeast Anticancer Drug Screen. Data for the rad50 strain (AID 155);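 further: 0% = growth of vehicle-only cultures of the same strain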
# assay setup: S. cerevisiae rad50 strain growth inhibition; at 50.0 µM; hits give high values
Compounds without any hit were thinned out: in the full panel of roughly 79,000, 15% have a hit.
Your answer should be a plain number; it is taken to be in %.

Record excerpt, results attached:
Oc1ccc(/C=N/NC(=S)NN2CCOCC2)nc1 ... 87
O=C1C(Cl)=C(N2CCN(C3=C(Cl)C(=O)c4ccccc4C3=O)CC2)C(=O)c2ccccc21 ... 84.4
CN1CCCc2cc(/C=C\c3ccnc4ccccc34)ccc21 ... 96

So what does the record say about growth inhibition for Cc1c(C)c(CCl)c(C)c(C)c1CCl ?
87.7

Please give the measured growth inhibition for this compound: CCCCCCCCCCNC1CC(OC2CC(O)(C(O)CO)Cc3c(O)c4c(c(O)c32)C(=O)c2c(OC)cccc2C4=O)OC(C)C1O (stereo not given)
85.8
